- protocol-summary: refractive index (Na D-line) (dimensionless)
- protocol-conditions: 298.15 K; 101.33 kPa; Liquid; Standard Abbe refractometry
So I've got a bunch of compounds here, and I need their refractive index values.
Field format: numeric only.

Input: Please give the documented refractive index of CC(O)CO (centres undefined)
Output: 1.4313

Input: Please give the documented refractive index of CCOC(=O)CCC(=O)OCC [diethyl butanedioate]
Output: 1.4179

Input: Please give the documented refractive index of CC1COC(=O)O1 (centres undefined)
Output: 1.4198

Input: Please give the documented refractive index of `O=C1CCCO1`
Output: 1.435

* * *

- protocol-conditions: 298.15 K; 101.3 kPa; Liquid; Capillary tube (Ostwald / Ubbelohde) method
property-label: viscosity (mPa·s)
Write down the numeric answer in mPa·s and omit the unit.

Input: Please give the documented viscosity of CC1COC(=O)O1 (centres undefined)
Output: 2.39

Input: Please give the documented viscosity of `O=C1CCCO1`
Output: 1.654

Input: Please give the documented viscosity of CC(O)CO (centres undefined)
Output: 44.45

Input: Please give the documented viscosity of CCOC(=O)CCC(=O)OCC [diethyl butanedioate]
Output: 2.393

Source listed as the NIST ThermoML archive (doi:10.1021/je100803e).
